As an illustration, consider measured pIC50 for compounds on telomerase enzyme (Homo sapiens, UniProt O14746).
Sequence (O14746 whole entry): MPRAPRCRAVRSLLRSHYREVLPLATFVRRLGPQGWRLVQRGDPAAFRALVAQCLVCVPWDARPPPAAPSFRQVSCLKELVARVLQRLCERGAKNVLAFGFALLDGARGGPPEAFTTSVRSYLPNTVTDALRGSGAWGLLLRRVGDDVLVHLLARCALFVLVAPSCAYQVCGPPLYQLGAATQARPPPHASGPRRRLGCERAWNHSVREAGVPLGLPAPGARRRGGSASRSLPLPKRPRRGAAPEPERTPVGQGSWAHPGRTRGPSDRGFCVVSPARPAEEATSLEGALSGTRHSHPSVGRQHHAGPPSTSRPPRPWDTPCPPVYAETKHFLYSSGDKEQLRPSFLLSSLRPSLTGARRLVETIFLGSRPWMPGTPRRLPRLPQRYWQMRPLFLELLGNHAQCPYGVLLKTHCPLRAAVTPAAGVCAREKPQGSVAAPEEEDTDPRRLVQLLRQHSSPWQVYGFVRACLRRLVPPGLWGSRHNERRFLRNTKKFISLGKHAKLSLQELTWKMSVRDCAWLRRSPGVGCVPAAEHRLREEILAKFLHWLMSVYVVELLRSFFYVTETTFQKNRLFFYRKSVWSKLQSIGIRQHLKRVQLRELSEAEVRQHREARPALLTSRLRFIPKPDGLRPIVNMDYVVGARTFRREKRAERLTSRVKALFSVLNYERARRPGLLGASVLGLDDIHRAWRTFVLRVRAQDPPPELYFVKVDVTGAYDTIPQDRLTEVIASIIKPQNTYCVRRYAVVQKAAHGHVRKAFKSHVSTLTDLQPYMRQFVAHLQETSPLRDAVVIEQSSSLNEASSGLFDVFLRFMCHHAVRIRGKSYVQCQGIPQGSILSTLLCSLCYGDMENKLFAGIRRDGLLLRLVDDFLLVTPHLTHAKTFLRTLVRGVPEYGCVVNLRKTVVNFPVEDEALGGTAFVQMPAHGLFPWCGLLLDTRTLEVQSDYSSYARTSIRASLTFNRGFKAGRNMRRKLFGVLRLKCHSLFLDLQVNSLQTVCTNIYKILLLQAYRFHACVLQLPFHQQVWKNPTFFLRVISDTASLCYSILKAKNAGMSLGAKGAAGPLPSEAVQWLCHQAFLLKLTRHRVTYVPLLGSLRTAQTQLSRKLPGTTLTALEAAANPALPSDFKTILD
pIC50: −log10 of the molar value.
Measured quantity: pIC50

{"Compound": "Cc1nc(N2CCc3ccccc3C2)nc2c1ccc(=O)n2-c1ccc(C(=O)NC2CC2)cc1 [Compound 33]", "Experimental system": "telomerase enzyme (Homo sapiens, UniProt O14746)", "Measured quantity": "pIC50", "Recorded result": 5.96}
{"Compound": "Cc1nc(N2CCN(c3ncccn3)CC2)nc2c1ccc(=O)n2-c1ccc(C(=O)NCc2cccc3ccccc23)cc1 [Compound 32]", "Experimental system": "telomerase enzyme (Homo sapiens, UniProt O14746)", "Measured quantity": "pIC50", "Recorded result": 5.90}
{"Compound": "CCOC(=O)c1ccc(NC(=O)c2ccc(-n3c(=O)ccc4c(C)nc(N5CCc6ccccc6C5)nc43)cc2)cc1 [Compound 37]", "Experimental system": "telomerase enzyme (Homo sapiens, UniProt O14746)", "Measured quantity": "pIC50", "Recorded result": 5.54}
{"Compound": "Cc1nc(N2CCN(c3ncccn3)CC2)nc2c1ccc(=O)n2-c1ccc(C(=O)NCc2ccccc2)cc1 [Compound 27]", "Experimental system": "telomerase enzyme (Homo sapiens, UniProt O14746)", "Measured quantity": "pIC50", "Recorded result": 5.41}
{"Compound": "Cc1nc(N2CCc3ccccc3C2)nc2c1ccc(=O)n2-c1ccc(C(=O)NC2CCCCC2)cc1 [Compound 39]", "Experimental system": "telomerase enzyme (Homo sapiens, UniProt O14746)", "Measured quantity": "pIC50", "Recorded result": 5.85}
{"Compound": "Cc1nc(N2CCN(c3ncccn3)CC2)nc2c1ccc(=O)n2-c1ccc(C(=O)NCc2ccc(F)cc2F)cc1 [Compound 31]", "Experimental system": "telomerase enzyme (Homo sapiens, UniProt O14746)", "Measured quantity": "pIC50", "Recorded result": 5.03}
{"Compound": "Cc1nc(N2CCN(c3ccc(F)cc3)CC2)nc2c1ccc(=O)n2-c1ccc(C(=O)NCc2ccccc2)cc1 [Compound 20]", "Experimental system": "telomerase enzyme (Homo sapiens, UniProt O14746)", "Measured quantity": "pIC50", "Recorded result": 5.21}
{"Compound": "CCCCCCCCNC(=O)c1ccc(-n2c(=O)ccc3c(C)nc(NCC(C)C)nc32)cc1 [Compound 43]", "Experimental system": "telomerase enzyme (Homo sapiens, UniProt O14746)", "Measured quantity": "pIC50", "Recorded result": 5.21}
{"Compound": "Cc1nc(N2CCc3ccccc3C2)nc2c1ccc(=O)n2-c1ccc(C(=O)NCC[N+]2([O-])CCOCC2)cc1 [Compound 45]", "Experimental system": "telomerase enzyme (Homo sapiens, UniProt O14746)", "Measured quantity": "pIC50", "Recorded result": 5.14}
{"Compound": "COc1ccc(NC(=O)c2ccc(-n3c(=O)ccc4c(C)nc(N5CCc6ccccc6C5)nc43)cc2)cc1OC [Compound 34]", "Experimental system": "telomerase enzyme (Homo sapiens, UniProt O14746)", "Measured quantity": "pIC50", "Recorded result": 5.09}
{"Compound": "Cc1nc(N2CCc3ccccc3C2)nc2c1ccc(=O)n2-c1ccc(C(=O)NCCC[N+](C)(C)[O-])cc1 [Compound 46]", "Experimental system": "telomerase enzyme (Homo sapiens, UniProt O14746)", "Measured quantity": "pIC50", "Recorded result": 5.59}
